- Test system: Rattus norvegicus
- assay text: AUC in rat at 1.5 mg/kg, po
- Assay type: ADME, organism-based, Plasma
- Parameters: dose 1.5 mg/kg, route oral
- study conditions: in vivo
Would you mind telling me the reported AUC of each entry?
Answer format: numeric, µM·h implied, no suffix.

Given the compound COCC(C1CC1)n1c(=O)c(C)nc2c(-c3cc(F)c(OC)cc3Cl)ncnc21 (configuration not stated) , what is its reported AUC?
0.3

I'd like to know its AUC. The compound in question is CCC(COC)n1c(=O)c(C)nc2c(-c3cc(Cl)c(OC)cc3C)ccnc21 (configuration not stated)
8.5

---

- assay text: Half life in rat at 0.5 mg/kg, iv
- Format: ADME, organism-based
- Set-up: dose 0.5 mg/kg, route intravenous
- study conditions: in vivo
Exercise: for every item that follows, state its recorded half-life.
Write it as a number; the unit h goes unstated.

Given CCC(COC)n1c(=O)c(C)nc2c(-c3cc(Cl)c(OC)cc3C)ccnc21 (configuration not stated) , state its recorded half-life.
5.8

Please give the measured half-life for this compound: COCC(C1CC1)n1c(=O)c(C)nc2c(-c3cc(F)c(OC)cc3Cl)ncnc21 (configuration not stated)
2
